B1: Far upstream element-binding protein 1, residues 184 to 257; numbered along this chain, Q96AE4 (parent)
chain: GNAVQEIMIPASKAGLVIGKGGETIKQLQERAGVKMVMIQDGPQNTGADKPLRITGDPYKVQQAKEMVLELIRD

# Variants of: B1
# Assay Explanation: abundance fitness (aPCA) (normalised: wild type 0, dead -1); higher = more abundant; growth selection in yeast, the domain comes from the species named
# Experimental Parameters: Homo sapiens
Collected abundance fitness values appear next to each entry.
Value Type: abundance fitness

>  <Sequence Input>
GNAVQEIMIPASKAGLVIGKGGETIKQNQERAGVKMVMIQDGPQNTGADKPLRITGDPYKVQQAKEMVLELIRD [L28N]

>  <Value Type>
abundance fitness

>  <Test Result>
-0.415

$$$$
>  <Sequence Input>
GNAVQEIMIPASKAGLVIGKGGETIKQLQERYGVKMVMIQDGPQNTGADKPLRITGDPYKVQQAKEMVLELIRD [A32Y]

>  <Value Type>
abundance fitness

>  <Test Result>
-0.016

$$$$
>  <Sequence Input>
GNAVQEIMIPASKAGLVIGKGGETIKQLQERAGVKMVMIQDGPQNTGADKPLRITGDPYKVQQAKEMDLELIRD [V68D]

>  <Value Type>
abundance fitness

>  <Test Result>
-0.359

$$$$
>  <Sequence Input>
GNAVQEIMIPASKAGLVIGKGGETIKQLQERAGVKMVMIQDGPQNTGADKPLRITGYPYKVQQAKEMVLELIRD [D57Y]

>  <Value Type>
abundance fitness

>  <Test Result>
-0.208

$$$$
>  <Sequence Input>
GNAVQEIMIPASKAGLVIGKGGETIKQLQERAGVKMVMIQDGPQNTGADKPLRITGDPYKVFQAKEMVLELIRD [Q62F]

>  <Value Type>
abundance fitness

>  <Test Result>
-0.105

$$$$
>  <Sequence Input>
GNAVQEIMIPASKAGLVIGKGGETIKQLHERAGVKMVMIQDGPQNTGADKPLRITGDPYKVQQAKEMVLELIRD [Q29H]

>  <Value Type>
abundance fitness

>  <Test Result>
-0.557

$$$$
>  <Sequence Input>
GNAVQEIMIPASKAGLVIGKGGETIKQLQERAGVKMVMIQDGPPNTGADKPLRITGDPYKVQQAKEMVLELIRD [Q44P]

>  <Value Type>
abundance fitness

>  <Test Result>
0.006

$$$$
>  <Sequence Input>
GNAVQEIMIPASKAGLVIGKGGETIKQLQERAGVKMVMIQHGPQNTGADKPLRITGDPYKVQQAKEMVLELIRD [D41H]

>  <Value Type>
abundance fitness

>  <Test Result>
-0.048

$$$$
>  <Sequence Input>
GNAVQEIMIPASKAGLVIGKGGETIKQLQERAGVKMVMIQDGPQNTGADKPLRITGDPYKVQQAKEMVLELIDD [R73D]

>  <Value Type>
abundance fitness

>  <Test Result>
0.092

$$$$
>  <Sequence Input>
GNAVQEIMIPASRAGLVIGKGGETIKQLQERAGVKMVMIQDGPQNTGADKPLRITGDPYKVQQAKEMVLELIRD [K13R]

>  <Value Type>
abundance fitness

>  <Test Result>
-0.187

$$$$
>  <Sequence Input>
GNAVQEIMIPASKAGLVIGKGGETIKTLQERAGVKMVMIQDGPQNTGADKPLRITGDPYKVQQAKEMVLELIRD [Q27T]

>  <Value Type>
abundance fitness

>  <Test Result>
-0.081

$$$$
